Test: IUF_NPC1a_proliferation_area_72hr: Leibniz Research Institute for Environmental Medicine (IUF) 72-hour Neural Progenitor Cell Proliferation Area Assay (NPC1a) (AID 2284208)
Activity calls are given as the source filed them. How the source made its calls: active means hit-call score of the fitted dose curve at least 0.9, where 1 is the maximum; inactive means score below 0.9.
Result category, one only: active, inactive

[
  {
    "structure.notation": "COP(=S)(OC)SCN1C(=O)c2ccccc2C1=O",
    "assigned.label": "inactive"
  },
  {
    "structure.notation": "OCCOCCO",
    "assigned.label": "inactive"
  },
  {
    "structure.notation": "[O-][Cl+]O",
    "assigned.label": "inactive"
  }
]

Returns: the outcome recorded for O=P(OCCCl)(OCCCl)OCCCl in this assay. inactive

// return assay outcome for CCC[CH2][Sn]([Cl])([CH2]CCC)[CH2]CCC active

Dear colleague, could you share the recorded outcome for COC(=O)Nc1nc2ccccc2[nH]1 when you have a moment? inactive

Hi, do you know how CC(C)COC(=O)c1ccccc1C(=O)OCC(C)C came out in this test? inactive

I would be grateful if you could indicate the recorded call for CCCCOC(=O)c1ccccc1C(=O)OCc1ccccc1 . inactive

====

Assay: ATG_BRE_CIS: Attagene CIS-FACTORIAL HepG2 Assay for human Bone Morphogenetic Protein (BMP) Response Element (BRE) (AID 2282933)
Conditions: HepG2 BMP response element reporter, Attagene transcription factor profiling; actives raise or lower the signal
Calls of active or inactive are those of the source. Rule for the calls: active = hit-call score of the fitted dose curve at least 0.9, where 1 is the maximum; inactive = score below 0.9.
// classify into active, inactive

Below, 8 compounds whose answers are already recorded.
[
  {
    "compound": "C[C@]12C=CC3=C4CCC(=O)C=C4CC[C@H]3[C@@H]1CC[C@@H]2O",
    "assigned.label": "inactive"
  },
  {
    "compound": "Nc1ccc(N=Nc2ccccc2)cc1",
    "assigned.label": "active"
  },
  {
    "compound": "c1ccc(C2CO2)cc1 (stereo not drawn)",
    "assigned.label": "inactive"
  },
  {
    "compound": "N#CC(Br)(Br)C(N)=O",
    "assigned.label": "inactive"
  },
  {
    "compound": "CO[C@@H]1[C@H](OC(=O)NC(=O)CCl)CC[C@]2(CO2)[C@H]1[C@@]1(C)O[C@@H]1CC=C(C)C",
    "assigned.label": "inactive"
  },
  {
    "compound": "Nc1ccc(Cl)cc1N",
    "assigned.label": "inactive"
  },
  {
    "compound": "O=P(OCCCl)(OCCCl)OCCCl",
    "assigned.label": "inactive"
  },
  {
    "compound": "COP(=S)(OC)SCN1C(=O)c2ccccc2C1=O",
    "assigned.label": "inactive"
  }
]

Short answer needed: outcome of this test for O=C(N[C@H](c1ccccc1)[C@@H]1CN2CCC1CC2)c1c(Cl)ccc(C(F)(F)F)c1Cl ? inactive

Dear all, I need the recorded test outcome for C=CCc1ccc2c(c1)OCO2 , thank you. inactive

What outcome does the record of this test show for COc1cc(C=O)cc2c1[C@H](COC(N)=O)[C@]1(OC(C)=O)ON2C[C@H]2[C@@H]1N2C(C)=O ? inactive

Hi team, can someone confirm the assay call for Nc1ccc([N+](=O)[O-])cc1 ? inactive

Kindly provide the recorded test outcome for the following compound: CCCCCCCCCCCCCN1CC(C)OC(C)C1 (stereo not drawn) active

Hi, sorry to bother you, what did the test record for O=C(Nc1ccccc1)c1ccccc1I ? inactive

Which result was noted for this compound in the test: c1ccc(NNc2ccccc2)cc1 inactive

GET /call?item= CCN(CC)N=O returns the recorded outcome of this test. inactive
